- ASSAY_METHOD_TEXT: Plasma pharmacokinetics of paracetamol, paracetamol glucuronide and paracetamol sulphate in rats (HPLC-UV, non-compartmental)
- Format: in vivo, Wistar rats
- APPLIED_CONDITIONS: male, Wistar, rat, plasma, po, 100 mg/kg, paracetamol 100 mg/kg p.o. + lapatinib 100 mg/kg p.o. (IL + PA), plasma, M ± SD
VALUE_KIND: k el (s⁻¹)
Dear colleague, please return just the value in s⁻¹, with no unit written.

The compound listed as `CC(=O)Nc1ccc(O)cc1` shows k el equal to 6.67e-05

* * *

- ASSAY_METHOD_TEXT: Plasma pharmacokinetics of paracetamol, paracetamol glucuronide and paracetamol sulphate in rats (HPLC-UV, non-compartmental)
- Format: in vivo, Wistar rats
- APPLIED_CONDITIONS: male, Wistar, rat, plasma, po, 100 mg/kg, paracetamol 100 mg/kg p.o. alone (IIIPA), plasma, M ± SD, read-out: MRT0-t
VALUE_KIND: MRT last (h)
Dear colleague, please return just the value in h, with no unit written.

The compound listed as CC(=O)Nc1ccc(O)cc1 [paracetamol, Paracetamol] shows MRT last equal to 2.57

* * *

- ASSAY_METHOD_TEXT: Plasma pharmacokinetics of paracetamol, paracetamol glucuronide and paracetamol sulphate in rats (HPLC-UV, non-compartmental)
- Assay type: in vivo, Wistar rats
- APPLIED_CONDITIONS: male, Wistar, rat, plasma, po, 100 mg/kg, paracetamol 100 mg/kg p.o. + lapatinib 100 mg/kg p.o. (IL + PA), plasma, M ± SD
VALUE_KIND: Vd/F
Please state the number and follow it with the unit.

The compound listed as `CC(=O)Nc1ccc(O)cc1` shows Vd/F equal to 8.94 L

* * *

- ASSAY_METHOD_TEXT: Plasma pharmacokinetics of paracetamol, paracetamol glucuronide and paracetamol sulphate in rats (HPLC-UV, non-compartmental)
- Format: in vivo, Wistar rats
- APPLIED_CONDITIONS: male, Wistar, rat, plasma, po, 100 mg/kg, paracetamol 100 mg/kg p.o. + lapatinib 100 mg/kg p.o. (IL + PA), plasma, M ± SD
VALUE_KIND: AUC(0-inf) (ng·h/mL)
Dear colleague, please return just the value in ng·h/mL, with no unit written.

The compound listed as CC(=O)Nc1ccc(O)cc1 [paracetamol, Paracetamol] shows AUC(0-inf) equal to 45400
